Biological target: Muscarinic acetylcholine receptor M4 (Homo sapiens)
Test: compounds altering M4/GIRK thallium flux, either direction, primary screen, M4 allosteric agonist project, cell-based, HEK293 M4/GIRK, BTC-AM (AID 625);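 also: thallium influx through GIRK channels coupled to M4 in HEK293 cells with BTC-AM dye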
Conditions: at 10 µM, actives lie on both sides
I'd appreciate it if you could supply fluorescence slope values for the items below.
No unit in the answer, please; the number alone is enough.

Input: I would be grateful if you could share the reported fluorescence slope for Cc1ccc(S(=O)(=O)NC(=O)Nc2ncc3c(n2)CC(c2ccco2)CC3=O)cc1 (centres undefined) .
Output: 0.00507

Input: Form field: reported fluorescence slope of CN1Cc2c(N3CCOCC3)nc(SCc3ccccc3)c(C#N)c2CC1(C)C
Output: 0.00495

Input: Tell me the measured fluorescence slope of N#CC1=C(N)OC2=C(C(=O)CCC2)[C@]12C(=O)N(CC(N)=O)c1ccccc12 , please.
Output: 0.00487

Input: Query (compound): CCOC(=O)CNC(=O)CNC(=O)c1ccc(OC)cc1 ; field requested: fluorescence slope
Output: 0.0051

// data source = PubChem BioAssay
